- procedure.details: Pharmacokinetics (plasma and brain levels) in ICR (CD-1) mice
- Type: in vivo
- cond: male, ICR (CD-1), mouse, plasma, iv, 1 mg/kg, i.v. 1 mg/kg, mouse plasma, 0.25 h; read-out: Conc. in plasma, Mean
# concentration at 0.25 h annotations
Number in ng/mL, nothing else.

> print(dat)
                                   compound  recorded.number
1  CC(=O)Nc1ccc(C2=Nc3ccc(Cl)cc3OC2)cc1 [CA77, reference compound]             30.2

Sure, the documented concentration at 0.25 h for CC(=O)Nc1ccc(-c2cnc3cc(Cl)ccc3n2)cc1 [CA77.1] is 129

----------
# concentration at 0.25 h annotations
- procedure.details: Pharmacokinetics (plasma and brain levels) in ICR (CD-1) mice
- Type: in vivo
- cond: male, ICR (CD-1), mouse, brain, iv, 1 mg/kg, i.v. 1 mg/kg, mouse brain, 0.25 h; read-out: Conc. in brain, Mean
Number in ng/g, nothing else.

> print(dat)
                               compound  recorded.number
1  CC(=O)Nc1ccc(-c2cnc3cc(Cl)ccc3n2)cc1              789

Turning now to a further record.
Sure, the documented concentration at 0.25 h for CC(=O)Nc1ccc(C2=Nc3ccc(Cl)cc3OC2)cc1 [CA77, reference compound] is 3650

----------
- procedure.details: Pharmacokinetics (plasma and brain levels) in ICR (CD-1) mice
- Assay type: in vivo
- cond: male, ICR (CD-1), mouse, brain, iv, 1 mg/kg, i.v. 1 mg/kg, mouse brain, 2.00 h; read-out: Conc. in brain, Mean
readout.name: concentration at 2 h
Please make sure the unit comes right after the number.

> print(dat)
                                   compound          readout.name    result
1  CC(=O)Nc1ccc(C2=Nc3ccc(Cl)cc3OC2)cc1 [CA77, reference compound]  concentration at 2 h  659 ng/g

Sure, the documented concentration at 2 h for CC(=O)Nc1ccc(-c2cnc3cc(Cl)ccc3n2)cc1 is 244 ng/g

----------
- procedure.details: Pharmacokinetics (plasma and brain levels) in ICR (CD-1) mice
- Type: in vivo
- cond: male, ICR (CD-1), mouse, plasma, iv, 1 mg/kg, i.v. 1 mg/kg, mouse plasma, 24.0 h; read-out: Conc. in plasma, Mean
readout.name: concentration at 24 h

Sure, the documented concentration at 24 h for CC(=O)Nc1ccc(-c2cnc3cc(Cl)ccc3n2)cc1 is 1 ng/mL

----------
- procedure.details: Pharmacokinetics (plasma and brain levels) in ICR (CD-1) mice
- Type: in vivo
- cond: male, ICR (CD-1), mouse, brain, iv, 1 mg/kg, i.v. 1 mg/kg, mouse brain, 8.00 h; read-out: Conc. in brain, Mean
readout.name: concentration at 8 h (ng/g)
Number in ng/g, nothing else.

> print(dat)
                                   molecule          readout.name  unit.tag  recorded.number
1  CC(=O)Nc1ccc(C2=Nc3ccc(Cl)cc3OC2)cc1 [CA77, reference compound]  concentration at 8 h      ng/g             25.6

Turning now to a further record.
Sure, the documented concentration at 8 h for CC(=O)Nc1ccc(-c2cnc3cc(Cl)ccc3n2)cc1 is 4
